TARGET ENTITY: UniProtKB Q08493
Sequence (Q08493 whole entry): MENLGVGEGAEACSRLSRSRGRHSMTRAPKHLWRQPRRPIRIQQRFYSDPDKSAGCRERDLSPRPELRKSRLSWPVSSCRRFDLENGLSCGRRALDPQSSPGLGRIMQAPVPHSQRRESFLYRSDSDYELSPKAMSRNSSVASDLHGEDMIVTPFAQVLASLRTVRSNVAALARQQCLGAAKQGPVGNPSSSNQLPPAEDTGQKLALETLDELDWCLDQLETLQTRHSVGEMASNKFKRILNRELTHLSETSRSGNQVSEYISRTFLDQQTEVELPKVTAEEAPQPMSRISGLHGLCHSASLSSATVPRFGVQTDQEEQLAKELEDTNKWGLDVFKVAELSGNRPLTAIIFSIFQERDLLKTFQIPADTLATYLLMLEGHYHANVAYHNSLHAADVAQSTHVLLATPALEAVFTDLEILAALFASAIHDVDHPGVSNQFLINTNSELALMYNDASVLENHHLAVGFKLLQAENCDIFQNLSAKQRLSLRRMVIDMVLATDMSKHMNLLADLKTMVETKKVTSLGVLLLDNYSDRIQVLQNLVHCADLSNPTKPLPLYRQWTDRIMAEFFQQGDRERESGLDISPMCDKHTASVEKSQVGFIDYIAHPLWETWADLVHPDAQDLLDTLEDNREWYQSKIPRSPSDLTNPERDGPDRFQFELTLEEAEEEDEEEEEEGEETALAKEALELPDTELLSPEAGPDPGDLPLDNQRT
ASSAY COMMENT: Inhibition of recombinant human full length N-terminal GST-tagged PDE4C1 expressed in baculovirus infected Sf9 cells using cAMP as substrate after 1 hr by LANCE TR-FRET assay
RECORDED METRIC: pIC50
Note on pIC50: it is the negative log10 of concentration, concentration in mol/L.

Req: Kindly state the measured pIC50 obtained for COc1ccc(-c2nc(C(F)(F)F)ncc2C(=O)Nc2c(Cl)cncc2Cl)cc1OC with UniProtKB Q08493.
Resp: 7.41

Req: What reported pIC50 corresponds to COc1ccc(NC(=O)c2cnc(C(F)(F)F)nc2N2CCOCC2)cc1OC on UniProtKB Q08493?
Resp: 6.81

Req: Entry COc1ccc(CCNC(=O)c2cnc(SC)nc2N2CCOCC2)cc1OC , system UniProtKB Q08493: what pIC50 was measured?
Resp: 6.49
